assay-explanation: ESR hydroxyl free radical scavenging (Fenton reaction, DEPMPO spin trap)
Format: biochemical
test-conditions: 0.18 mM OH• chemically generated (Fenton), read-out: concentration required to reduce hydroxyl free radical by 50%
metric-name: pIC50
By convention, pIC50 is the negative base-10 log of a molar concentration.

stdin: Requested field: pIC50. Item: Cc1cc(O)c2c(c1)C(c1c(O)cccc1O)OC2=O (racemic) [Isopestacin]
stdout: 3.66

###

assay-explanation: ESR superoxide scavenging (hypoxanthine/xanthine oxidase, EMPO spin trap)
Type: biochemical
test-conditions: superoxide generated by hypoxanthine/xanthine oxidase, read-out: concentration needed to reduce the free radical O2−• (ESR signal) by 50%
pIC50: −log10 of the molar value.
metric-name: pIC50

stdin: Bench note: what pIC50 did Cc1cc(O)c2c(c1)C(c1c(O)cccc1O)OC2=O (racemic) show?
stdout: ≤ 3.73
